studyTarget: human recombinant BACE2 (Homo sapiens (Human), UniProt Q9Y5Z0)
Sequence (Q9Y5Z0 63-518): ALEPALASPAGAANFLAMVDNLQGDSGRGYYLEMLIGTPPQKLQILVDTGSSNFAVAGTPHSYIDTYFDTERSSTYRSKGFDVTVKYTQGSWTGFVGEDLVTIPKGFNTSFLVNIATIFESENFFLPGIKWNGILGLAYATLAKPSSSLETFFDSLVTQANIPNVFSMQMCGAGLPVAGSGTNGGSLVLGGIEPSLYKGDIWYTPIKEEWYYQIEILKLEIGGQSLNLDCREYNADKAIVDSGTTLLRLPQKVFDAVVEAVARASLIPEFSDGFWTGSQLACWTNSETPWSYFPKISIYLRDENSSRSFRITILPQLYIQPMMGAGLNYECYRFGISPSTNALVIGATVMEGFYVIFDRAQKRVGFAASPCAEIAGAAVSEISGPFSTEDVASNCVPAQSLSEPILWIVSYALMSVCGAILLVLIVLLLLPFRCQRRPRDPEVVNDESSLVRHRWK
protocolDescription: In vitro enzymatic BACE2 FRET assay
Assay type: biochemical
measurementConditions: BACE2 FRET enzyme assay; read-out: IC50 IP (μM) BACE2 enzyme
Criterion: IC50 strictly less than 0.02 µM. Met: T. Not met: F.

Is it true that IC50 reported for "C[C@]1(c2cc(Nc3nccc4cc(Cl)cnc34)cc(F)c2F)N=C(N)S[C@@]2(CO)C[C@H]21" is less than 0.02 µM? T

Problem: For the molecule "C[C@]1(c2cc(Nc3ncnc4cc(Cl)cnc34)cc(F)c2F)N=C(N)S[C@@]2(CO)C[C@H]21" , is IC50 under 0.02 µM? T

For this molecule, is IC50 lower than 0.02 µM? "Cc1cc(C#N)cnc1C(=O)Nc1cc(F)c(F)c([C@@]2(CF)N=C(N)S[C@H]3C[C@H]32)c1" T

Bench note: check whether "Cc1cc(C#N)cnc1C(=O)Nc1cc(F)c(F)c([C@@]2(CF)N=C(N)S[C@@]3(CO)C[C@H]32)c1" shows IC50 below 0.02 µM T

# check: IC50 < 0.02 µM for "COc1cnc(C(=O)Nc2cc(F)c(F)c([C@@]3(CF)N=C(N)S[C@H]4C[C@H]43)c2)c(C)c1" T

Is IC50 strictly under 0.02 µM for the entry "CC(C)Oc1cnc2c(Nc3cc(F)c(F)c([C@@]4(CF)N=C(N)S[C@H]5C[C@H]54)c3)nccc2n1" ? F

###

studyTarget: human recombinant BACE2 (Homo sapiens (Human))
protocolDescription: In vitro enzymatic BACE2 FRET assay
Assay type: biochemical
measurementConditions: read-out: IC50 IP (μM) BACE2 enzyme
Experimental: These recombinant proteins were further purified using Ni-NTA affinity chromatography (Qiagen). […] This assay is effectively started by the addition of FRET substrate (50 nM) and the combination is incubated for one hour. The FRET assay is terminated by addition of Tris buffer, which raises the pH to neutrality, and the fluorescence is determined. […] Proteolytic cleavage of the FRET substrate releases quenching of fluorescence (excitation 488 nm and emission 590 nm).
reportedMetric: log10 IC50 (log10 of the value in µM)
Remember, log10 of IC50, in µM.

Given the molecule "Cc1nc(OCC(F)(F)F)cnc1C(=O)Nc1cc(F)c(F)c([C@@]2(C)N=C(N)S[C@@]3(C(F)F)C[C@@H]23)c1" , what is its reported log10 IC50? -0.93

Fill in the blank: the reported log10 IC50 of COC[C@]12C[C@H]1[C@@](C)(c1cc(NC(=O)c3cnc(OCC(C)OC)cn3)cc(F)c1F)N=C(N)S2 (stereo partly drawn) is ____. -0.69

# get_value(readout='log10 IC50', item= "C#CCOc1cnc(C(=O)Nc2ccc(F)c([C@@]3(C)N=C(N)S[C@@]4(C(=O)NC5CC5)C[C@H]43)c2)cn1" ) -1.98

log10 IC50 for "C#CCOc1cnc(C(=O)Nc2cnc(OC)c([C@@]3(C)N=C(N)S[C@@]4(CF)C[C@H]43)c2)cn1" ? -1.26

Which log10 IC50 value is on record for "C#CCCOc1cnc(C(=O)Nc2ccc(F)c([C@@]3(C)N=C(N)S[C@@]4(COC)C[C@H]43)c2)cn1" ? -0.82

So what's the measured log10 IC50 for this one? "NC1=N[C@](CF)(c2cc(Nc3nncc4cc(Cl)cnc34)ccc2F)[C@@H]2C[C@@H]2S1" -2.23

What log10 IC50 value was documented for this molecule, "COC[C@]12C[C@H]1[C@@](C)(c1cc(Nc3nccc4cc(OCc5cocn5)cnc34)cc(F)c1F)N=C(N)S2" ? -0.26

Name the reported log10 IC50 value associated with the molecule "C[C@]1(c2cc(Nc3ncnc4cc(OCc5ncco5)cnc34)cnc2F)N=C(N)S[C@@]2([C@H](O)C(F)(F)F)C[C@H]21" -1.22

Reported log10 IC50 for "C#CCOc1cnc(C(=O)Nc2ccc(F)c([C@@]3(C)N=C(N)S[C@@]4(C(=O)NC(C)(C)C)C[C@H]43)c2)cn1" : what is it? -1.57

I am curious: what log10 IC50 value has been reported for "C#CCOc1cnc2c(Nc3cnc(F)c([C@@]4(C)N=C(N)S[C@]5(CO)[C@H]4C5(F)F)c3)nccc2n1" ? -2.41

Can you look up the measured log10 IC50 of "C[C@]1(c2cc(NC(=O)c3ncc(OCC(F)(F)F)cc3Cl)cc(F)c2F)N=C(N)S[C@@]2(CF)C[C@H]21" for me? -0.61

Would you mind telling me what log10 IC50 value was observed for "C#CCOc1cnc2c(Nc3ccc(F)c([C@@]4(CF)N=C(N)S[C@@]5(c6ocnc6C)C[C@@H]45)c3)ncnc2c1" ? -1.91

Any idea what log10 IC50 was measured for "COC[C@]12C[C@H]1[C@@](C)(c1cc(NC(=O)c3cnc(OCC4CCC4)cn3)ccc1F)N=C(N)S2" ? -0.77

Any idea what its log10 IC50 is? The molecule is "C[C@]1(c2cc(NC(=O)c3ccc(OCC(F)(F)F)cn3)cc(F)c2F)N=C(N)S[C@@]2(C#N)C[C@H]21" -1.02

# input molecule: "C[C@H](Oc1cnc2c(Nc3cc(F)c(F)c([C@@]4(C)N=C(N)S[C@@]5(C(F)F)C[C@@H]45)c3)nccc2n1)c1ncco1" ; wanted: its log10 IC50 -0.07

Dear colleague, I am looking for the recorded log10 IC50 of the following molecule: "CN(C)C(=O)/C=C/[C@]12C[C@H]1[C@@](CF)(c1cc(Nc3ncnc4cc(OCc5ncco5)cnc34)ccc1F)N=C(N)S2" -1.22

Recorded log10 IC50 of "C#CCOc1cnc(C(=O)Nc2ccc(F)c([C@@]3(C)N=C(N)S[C@@]4(COC)C[C@H]43)c2)c(C)n1" , please. -1.89

Which measured log10 IC50 value corresponds to "C#C[C@H](C)Oc1cnc2c(Nc3cc(F)c(F)c([C@@]4(C)N=C(N)S[C@@]5(C(=O)N(C)C)C[C@H]54)c3)nccc2n1" ? -2.41

Report log10 IC50 for "C#CCOc1cnc(C(=O)Nc2ccc(F)c([C@@]3(CF)N=C(N)S[C@@]4(COC(C)C)C[C@H]43)c2)cn1" please. -1.30

I'd like to know its log10 IC50. The molecule in question is "C#CCOc1cnc(C(=O)Nc2ccc(F)c([C@@]3(C)N=C(N)S[C@@]4(C(F)F)C[C@@H]34)c2)cn1" -1.79

Quick check: log10 IC50 of "C#CCOc1cnc(C(=O)Nc2cc(F)c(F)c([C@@]3(C)N=C(N)S[C@@]4(C(F)F)C[C@@H]34)c2)c(C)n1" ? -1.75

Recorded log10 IC50 of "COC[C@]12C[C@H]1[C@@](C)(c1cc(NC(=O)c3cnc(OCc4cc(C)on4)cn3)cc(F)c1F)N=C(N)S2" , please. -1.33

Item "COC[C@]12C[C@H]1[C@@](C)(c1cc(Nc3ncnc4cc(C#N)cnc34)cnc1F)N=C(N)S2" has what recorded log10 IC50? -1.31

Please report the recorded log10 IC50 for "[2H]C([2H])([2H])OC[C@]12C[C@H]1[C@@](C)(c1cc(NC(=O)c3ncc(OCC#C)nc3C)cnc1F)N=C(N)S2" . -2.05

What log10 IC50 value was documented for this molecule, "COc1ncc(Nc2nccc3nc(OCc4ncco4)cnc23)cc1[C@@]1(C)N=C(N)S[C@@]2(CF)C[C@H]21" ? -0.70

###

studyTarget: Recombinant Cat D (Homo sapiens (Human), UniProt P07339)
Sequence (P07339 65-412): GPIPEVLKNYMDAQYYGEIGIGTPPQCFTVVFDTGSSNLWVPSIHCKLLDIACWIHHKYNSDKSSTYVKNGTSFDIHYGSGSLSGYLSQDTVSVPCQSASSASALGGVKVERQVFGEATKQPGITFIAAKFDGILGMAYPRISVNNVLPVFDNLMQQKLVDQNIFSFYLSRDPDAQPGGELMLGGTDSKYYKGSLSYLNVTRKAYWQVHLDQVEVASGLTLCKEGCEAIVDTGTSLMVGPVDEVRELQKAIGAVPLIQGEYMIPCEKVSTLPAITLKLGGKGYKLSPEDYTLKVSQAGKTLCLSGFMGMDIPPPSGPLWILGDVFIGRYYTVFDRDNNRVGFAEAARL
protocolDescription: In vitro enzymatic Cathepsin D (Cat D) FRET assay
Format: biochemical
measurementConditions: read-out: IC50 IP (μM) CatD
reportedMetric: IC50 (µM)
A number alone suffices; assume µM.

Requested field: IC50. Item: C[C@]1(c2cc(NC(=O)c3cnc(OCC(F)(F)C(F)F)cn3)ccc2F)N=C(N)S[C@]2(CO)[C@H]1C2(F)F [Example 708] 438

Fill in: IC50 of NC1=N[C@](CF)(c2cc(NC(=O)c3ccc(Cl)cn3)ccc2F)[C@@H]2C[C@]2(/C=C/C(=O)N2CCOCC2)S1 [Example 764] is ___ 518

Bench note: what IC50 did NC1=N[C@](CF)(c2cc(NC(=O)c3ccc(Cl)cn3)ccc2F)[C@@H]2C[C@]2(CCCO)S1 [Example 758] show? 2070

I'd like to know its IC50. The compound in question is C[C@]1(c2cc(NC(=O)c3cnc(OCC(F)(F)F)cn3)cc(F)c2F)N=C(N)S[C@@]2(C#N)C[C@H]21 [Example 940] 1390

###

Can you tell me IC50 for the items I'm about to list?
studyTarget: human recombinant BACE2 (Homo sapiens (Human))
protocolDescription: In vitro enzymatic BACE2 FRET assay
Type: biochemical
measurementConditions: read-out: IC50 IP (μM) BACE2 enzyme
Hi! Could you send only the number? It should be in µM, unit omitted.

I am curious: what IC50 value has been reported for "C#CCOc1cnc2c(Nc3ccc(F)c([C@@]4(CF)N=C(N)S[C@@]5(/C=C/C(=O)N(C)C)C[C@H]54)c3)ncnc2c1" ? 0.0264

Which value of IC50 has been reported for "COC[C@H](C)Oc1cnc(C(=O)Nc2ccc(F)c([C@@]3(C)N=C(N)S[C@@]4(C(=O)NC5CC5)C[C@H]43)c2)cn1" in the records? 0.356

Data request, read-out IC50, for "CC(F)(F)COc1cnc2c(Nc3cc(F)c(F)c([C@@]4(C)N=C(N)S[C@@]5(C(F)F)C[C@@H]45)c3)nccc2n1" 0.441

So what does the record say about IC50 for "C#CCOc1ccc(C(=O)Nc2ccc(F)c([C@@]3(CF)N=C(N)S[C@@]4(c5ccon5)C[C@@H]34)c2)nc1" ? 0.00477

What does the data say about its IC50? Entry: "COC[C@]12C[C@H]1[C@@](C)(c1cc(Nc3nccc4cc(OCC#CC(F)(F)F)cnc34)cc(F)c1F)N=C(N)S2" 0.658
